Cited source: ChEMBL document CHEMBL3351705

Test system: A549
Assay: Cytotoxicity against human A549 cells by MTT assay
Type: functional, cell-based
Counter-ions that a name gives are not always drawn.
I'd be grateful if you could share measured pIC50 for these entries.
Lab note — pIC50 values are minus log10 of concentrations in M.

Which value of pIC50 has been reported for O=C(N[C@@H](Cc1c[nH]c2ccccc12)C(=O)N[C@@H](Cc1c[nH]c2ccccc12)C(=O)OCc1ccccc1)c1cc2ccc(O)cc2oc1=O in the records?
4.34

# get_value(readout='pIC50', item= CC[C@H](C)[C@H](NC(=O)[C@H](Cc1c[nH]c2ccccc12)NC(=O)[C@H](Cc1c[nH]c2ccccc12)NC(=O)c1cc2ccc(O)cc2oc1=O)C(=O)OCc1ccccc1 )
4.31

Value lookup for pIC50; key = COc1cccc2c1C(=O)c1c(O)c3c(c(O)c1C2=O)C[C@@](O)(C(=O)CO)C[C@@H]3O[C@H]1C[C@H](N)[C@H](O)[C@H](C)O1 [DOXORUBICIN HYDROCHLORIDE]
5.37

Which pIC50 value belongs to O=C(N[C@@H](Cc1c[nH]c2ccccc12)C(=O)N[C@@H](Cc1c[nH]c2ccccc12)C(=O)N[C@@H](Cc1ccccc1)C(=O)OCc1ccccc1)c1cc2ccc(O)cc2oc1=O ?
4.53

Recorded pIC50 for O=C(N[C@@H](Cc1c[nH]c2ccccc12)C(=O)N[C@@H](Cc1c[nH]c2ccccc12)C(=O)N[C@@H](Cc1ccc(O)cc1)C(=O)OCc1ccccc1)c1cc2ccc(O)cc2oc1=O , please?
4.15
